- target desc: G5N R33A (Homo sapiens, UniProt Q8TEQ6 1-726, R33A)
- Sequence (Q8TEQ6 1-726 R33A): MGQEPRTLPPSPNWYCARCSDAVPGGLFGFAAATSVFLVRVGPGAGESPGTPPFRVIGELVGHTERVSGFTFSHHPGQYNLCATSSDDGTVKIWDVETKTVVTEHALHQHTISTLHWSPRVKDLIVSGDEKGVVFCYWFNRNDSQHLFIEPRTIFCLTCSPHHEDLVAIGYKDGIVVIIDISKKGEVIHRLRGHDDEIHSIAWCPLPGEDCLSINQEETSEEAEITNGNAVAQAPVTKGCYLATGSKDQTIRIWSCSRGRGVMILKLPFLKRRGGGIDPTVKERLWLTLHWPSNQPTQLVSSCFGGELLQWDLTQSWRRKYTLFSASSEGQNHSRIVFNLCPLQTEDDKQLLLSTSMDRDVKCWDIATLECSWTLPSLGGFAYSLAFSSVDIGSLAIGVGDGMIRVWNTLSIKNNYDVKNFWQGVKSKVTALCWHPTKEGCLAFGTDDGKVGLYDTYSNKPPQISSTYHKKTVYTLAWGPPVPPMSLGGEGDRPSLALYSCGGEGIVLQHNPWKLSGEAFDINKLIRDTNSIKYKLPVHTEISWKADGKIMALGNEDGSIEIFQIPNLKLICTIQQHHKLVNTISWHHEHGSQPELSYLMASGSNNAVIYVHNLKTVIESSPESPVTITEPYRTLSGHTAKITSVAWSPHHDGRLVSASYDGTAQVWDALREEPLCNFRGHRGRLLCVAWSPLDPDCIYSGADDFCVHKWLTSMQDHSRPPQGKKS
- assay overview: FP
readout: pKd
Give bare numbers, as −log10 of the molar value.

Qu. Look at this binder and give its reported pKd. GCAAUUUUUGACA (ssRNA) [U4 13-mer, FITC]
Ans. 5.48
